biological target: Cytochrome P450 3A4 (Homo sapiens) (UniProt P08684); experiment: Cytochrome P450 Family 3 Subfamily A Member 4 (CYP3A4) small molecule antagonists: luciferase reporter qHTS assay (AID 1671201); settings: P450-Glo CYP3A4 enzyme, luciferin luminescence, 1 h; series mostly up to 115 µM; further: nearly all actives have a fitted effect of over 50% in size
Sequence (P08684 whole entry, looked up): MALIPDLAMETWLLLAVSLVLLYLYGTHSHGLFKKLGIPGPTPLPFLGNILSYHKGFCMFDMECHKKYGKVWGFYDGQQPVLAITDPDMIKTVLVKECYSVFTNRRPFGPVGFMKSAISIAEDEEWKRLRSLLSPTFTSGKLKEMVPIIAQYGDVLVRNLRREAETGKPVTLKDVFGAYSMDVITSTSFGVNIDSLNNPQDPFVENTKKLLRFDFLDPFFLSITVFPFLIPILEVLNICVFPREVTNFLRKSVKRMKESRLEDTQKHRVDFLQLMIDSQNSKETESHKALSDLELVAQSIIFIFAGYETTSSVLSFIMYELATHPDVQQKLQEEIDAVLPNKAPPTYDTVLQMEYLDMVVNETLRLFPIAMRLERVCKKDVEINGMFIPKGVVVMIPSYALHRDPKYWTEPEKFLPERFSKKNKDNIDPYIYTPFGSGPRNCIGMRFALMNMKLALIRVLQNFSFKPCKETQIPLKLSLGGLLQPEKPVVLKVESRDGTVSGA
Results filed as inconclusive are left out. Active and inactive are the calls of the source. The call rests on the fitted dose curve; in most records, active means well fitted inhibition curve with a large enough effect in the repeat runs; inconclusive means weak or mixed curves; inactive means no such curve, though single readings can be large or run the other way.
Your answer must be one of the following: true (1) = active, false (0) = inactive

O=C(N[C@@H](c1ccccc1)[C@@H]1CCCCN1)c1cccc(C(F)(F)F)c1Cl : true (1)
CCC(C)=O : false (0)

### Prompt Could you kindly confirm the outcome this assay logged for Cc1ccc(S(=O)(=O)NC2CCCCC2)cc1 ?
### Response true (1)

### Prompt Could you kindly confirm the outcome this assay logged for CC(=O)Oc1ccc(C(=C2CCCCC2)c2ccc(OC(C)=O)cc2)cc1 ?
### Response false (0)

### Prompt Could you kindly confirm the outcome this assay logged for O=S1OCCO1 ?
### Response false (0)

### Prompt Could you kindly confirm the outcome this assay logged for OC/C(Br)=C(\Br)CO ?
### Response false (0)

### Prompt Could you kindly confirm the outcome this assay logged for OCCSc1ccccc1 ?
### Response false (0)

### Prompt Could you kindly confirm the outcome this assay logged for c1cc[c]([Bi]([c]2ccccc2)[c]2ccccc2)cc1 ?
### Response true (1)

### Prompt Could you kindly confirm the outcome this assay logged for COC(OC)(C(=O)c1ccccc1)c1ccccc1 ?
### Response false (0)

### Prompt Could you kindly confirm the outcome this assay logged for O=C(CCCN1CCC(O)(c2ccc(Br)cc2)CC1)c1ccc(F)cc1 ?
### Response false (0)
